- System: nude mice, LX-1 lung xenograft intrarenal, tumor weight T/C
- Experiment: NCI In Vivo Anticancer Drug Screen. Data for tumor model Human Lung LX-1 Xenograft (intrarenal inoculation) in NU/NU Swiss (nude) mice
- Setup Conditions: endpoint: mean tumor weight change; dose: 100.0 mg/kg/injection; schedule: Q01DX010 (sc); vehicle: saline; higher = larger tumour
Inconclusive results are not listed.
Quantity Kind: T/C

INSERT INTO assay_data (compound, endpoint_result) VALUES
  ('CCCC(=O)Nc1ncnc2c1ncn2C1OC2COP(=O)(O)OC2C1OC(=O)CCC (stereo not given)', '122 % of control'),
  ('O=C(NP(=O)(N1CC1)N1CC1)c1cc(I)ccc1I', '54 % of control'),
  ('C=CS(=O)(=O)c1ccccc1', '29 % of control'),
  ('Cc1c2ccncc2c(C)c2c1[nH]c1ccccc12', '59 % of control'),
  ('O=c1[nH]c(=O)n(C2CC(O)C(CO)O2)cc1C(F)(F)F (stereo not given)', '100 % of control'),
  ('CCCC(=O)O', '103 % of control'),
  ('CN1c2c(nc(N)[nH]c2=O)NCC1CCNc1ccc(C(=O)NC(CCC(=O)O)C(=O)O)cc1 (stereo not given)', '82 % of control'),
  ('NC1=NCN(C2OC(CO)C(O)C2O)C(=O)N1 (stereo not given)', '86 % of control'),
  ('C=CCOCC1CO1 (stereo not given)', '87 % of control'),
  ('CN(CO)c1nc(N(C)CO)nc(N(C)CO)n1', '49 % of control'),
  ('CC1(C)OC(=O)N(CO)C1=O', '116 % of control'),
  ('c1ccc(CN2CCOC2)cc1', '165 % of control'),
  ('CNC=O', '35 % of control'),
  ('OCC1OC(n2cnc3c(Cl)ncnc32)C(O)C1O (stereo not given)', '74 % of control'),
  ('C(CSC1=NCCN1)CSC1=NCCN1', '81 % of control'),
  ('O=C1C=CN(C2OC(CO)C(O)C2O)C(=O)C1 (stereo not given)', '21 % of control'),
  ('COc1cc2cc3c4cc(OC)c(OC)cc4cc[n+]3c(C)c2cc1OC (tested in a mixture with another compound)', '46 % of control'),
  ('OCC1OC(n2cnc3c(=S)nc[nH]c32)C(O)C1O (stereo not given)', '86 % of control'),
  ('C=CC(=O)NCNC(=O)C=C', '64 % of control'),
  ('Cn1cnc([N+](=O)[O-])c1SCC(=O)O', '71 % of control'),
  ('Nc1ncnc2c1ncn2C1OC(COP(=O)(O)O)C(O)C1O (stereo not given)', '38 % of control'),
  ('C(CC1CO1)C1CO1 (stereo not given)', '42 % of control'),
  ('C[N+](C)(C)c1ncnc2nc[nH]c12', '116 % of control'),
  ('COc1cc(C)c2c(c1C=O)Oc1c(c(C)c(O)c3c1C(O)OC3=O)OC2=O (stereo not given)', '32 % of control'),
  ('C(COCCOCC1CO1)OCCOCC1CO1 (stereo not given)', '108 % of control');
